// data source = PubChem BioAssay (NCI)

- System: BT-549 breast
- Protocol Description: NCI-60 one-dose screen, 48 h
- Recorded Conditions: 10 µM unless noted
The panel holds about 83,000 compounds, 20% with a hit somewhere; the sample as a whole holds those more often. The source made the active and inactive calls. How the source made its calls: active means growth percent below 10; inactive means the rest.
Labels: T for active, F for inactive

1) COCCn1cc(-c2nc(-c3c[nH]c4ncccc34)cs2)c2ccccc21    F
2) COc1ccc(Oc2ccc(/C=C/C(=O)c3cc4ccccc4oc3=O)cc2)cc1    F
3) O=C1NC(=O)C(c2coc3cc(Br)ccc23)=C1c1c[nH]c2ccccc12    F
4) CCCC(=O)NC(c1ccc2c(c1)OCO2)c1cc(Cl)c2cccnc2c1O (stereo unspecified)    F
5) Clc1ccc(Nc2ncc(Cc3cccc(Cl)c3Cl)s2)cc1    F
6) COc1cc2ncnc(Nc3ccc(S(=O)(=O)Nc4nccs4)cc3)c2cc1OCCCN1CCCC1    F
7) Cn1cc(-c2csc(-c3cn(CCCN4CCOCC4)c4ccc(F)cc34)n2)c2cccnc21    F
8) CCN(CC)CCOc1ccc(/C(=C(\C)Cc2ccc(OC)cc2)c2ccc(OC(=O)NCc3ccccc3)cc2)cc1    F
9) O=C(NCc1ccc(Cn2c(=O)sn(-c3ccccc3)c2=O)cc1)OCc1ccc2cccc(O)c2n1    T
10) Cc1ccc(C(=O)c2ccc(CC(=O)N/N=C/c3cccc(O)c3O)n2C)cc1    F
11) CCOC(=O)c1nnn(Cc2cc(=O)oc3ccc(O)cc23)c1C    F
12) CCOC(=O)NC(=S)n1oc(=O)c2ccccc21    F
13) CCN1C(=O)N(c2ccccc2)C2NC(=S)N(/N=C/C=C/c3ccccc3OC)C21 (stereo unspecified)    F
14) N=C(N)c1ccc(-c2ccc(-c3ccccc3)o2)o1    F
15) FC(F)(F)c1[nH]ncc1-c1nc2ccc3[nH]ncc3c2c2c1CCCC2    T
16) O=C(NC1CCC(Br)CC1)C1CCCC(S(=O)(=O)NC2CCCCC2)C1 (stereo unspecified)    F
17) COc1cc(N2C(=O)[C@H](Cl)C2c2ccc(SC)cc2)cc(OC)c1OC (stereo partly specified)    T
18) C/C(=N\Nc1ccccc1)c1ccc(NC2=CC(=O)c3ccccc3C2=O)cc1    F
19) CNC(=O)NCC1OC(n2cnc3c(NC(=O)Nc4ccccc4)ncnc32)C2OC(=O)CC12 (stereo unspecified)    F
20) O=C(NCCN1CCOCC1)OCc1ccc2c(Cl)cc(Cl)c(O)c2n1    F
21) COc1ccc(C2[C@@H](c3ccccc3)C(=O)N2c2cc(OC)c(OC)c(OC)c2)cc1F (stereo partly specified)    T

---

Documented growth across a set of compounds
- Test system: HT29 colon
- Protocol Description: NCI-60 one-dose screen, 48 h (100 = growth as untreated, 0 = no growth, -100 = all killed)
- Recorded Conditions: 10 µM unless noted
About 83,000 compounds went through this panel and 20% of them were active in at least one assay; those are over-represented in the sample as a whole.
Measured Metric: growth (%)

1) O=C1/C(=C/c2ccccn2)SC(=S)N1N1CCOCC1    103
2) CC(=O)Nc1sc2c(c1-c1nc3ccccc3s1)CNC2    15.7
3) C[N+]1=C(/C=C/c2ccccc2Cl)C(C)(C)c2ccccc21    91.4
4) Cc1ccc2cnc(N)c(C#Cc3cc(C(=O)Nc4ccc(CN5CCN(C)CC5)c(C(F)(F)F)c4)cnc3C)c2c1    -62.7
5) COc1cc(/C=C2\C(=O)N(CCCOc3cc(O)c4c(=O)cc(-c5ccccc5)oc4c3)c3ccccc32)cc(OC)c1O    -16.1

---

- Test system: SNB-75 CNS
- Protocol Description: NCI-60 one-dose screen, 48 h
- Recorded Conditions: 10 µM unless noted
The panel holds about 83,000 compounds, 20% with a hit somewhere; the sample as a whole holds those more often. Activity calls are given as the source filed them. Rule for the calls: active = growth percent below 10; inactive = the rest.
Labels: active, inactive

1. CS(=O)(=O)Nc1cc(-c2ccc3ncnc(Nc4ccc(OCc5ccccn5)c(Cl)c4)c3c2)cnc1Cl    active
2. CCCCCc1ccc(S(=O)(=O)Nc2ccc3nc(N)oc3c2)cc1    inactive
3. c1cc(OCCN2CCCCCC2)ccc1CNc1ccc2nc(CCC3CCCCC3)[nH]c2c1    inactive
4. O=C(/C=C/c1ccccc1)c1ccc(-n2cc(CN3CCN(c4cc5c(cc4F)c(=O)c(C(=O)O)cn5C4CC4)CC3)nn2)cc1    inactive
5. CC(C)(C)OC(=O)CN1CCc2c(sc3ncnc(N4CCN(c5ccc(F)cc5)CC4)c23)C1    inactive
6. C1CCC(N2CN3c4nonc4N4CN(C5CCCCC5)CN5c6nonc6N(C2)C3C45)CC1 (centres undefined)    inactive
7. CC1SC(c2ccccc2O)N(NC(=O)CCC(=O)c2nc3ncccc3[nH]2)C1=O (centres undefined)    inactive
8. OC1(c2ccccc2)c2ccccc2N(c2ccccc2)c2ccc(Cl)cc21 (centres undefined)    active
9. C#CCOc1ccc2nc(CCl)c(Cl)c(Nc3cccc(C(F)(F)F)c3)c2c1    inactive

---

- Test system: UACC-62 melanoma
- Protocol Description: NCI-60 one-dose screen, 48 h (100 = growth as untreated, 0 = no growth, -100 = all killed)
- Recorded Conditions: 10 µM unless noted
- Protocol: Growth inhibition of the UACC-62 human tumor cell line is measured as a screen for anti-cancer activity. Cells are grown in 96 well plates and exposed to the test compound for 48 hours. Compounds are tested at a single concentration, which is 10^-5 M for most compounds. The reported endpoint is percent growth (GI% or GIPRCNT), where numbers from 0 - 100% represent growth inhibition, and numbers from -100% - 0 represent cell death. For example, a value of 40 represents 60% growth inhibition. […]
This is part of a sample that, as a whole, favours compounds with a hit. Of some 83,000 tested, about 20% had one in any assay.
Decision: growth beneath 70% gives 1; growth meeting or exceeding 70% gives -1.

1. O=C1Nc2ccccc2/C1=N/N1C(=O)CN(CCCl)C1=O    -1
2. CC(C)c1ccc2c(c1)CC[C@H]1[C@](C)(C(=O)OCC#CCN3CCCC3)CCC[C@]21C    1
3. Cc1[nH]c(C(=O)Nc2ccccc2OC2CCN(CCN3CCOCC3)CC2)c(Cl)c1Cl    -1
4. N#CSc1c[nH]c2ccc(/C=C/C(=O)/C=C(O)/C=C/c3ccc4[nH]cc(SC#N)c4c3)cc12    1
5. CCCCNC(=O)c1ccc2c(c1)nc(-c1ccccc1)n2C1CCCCC1    -1
6. NS(=O)(=O)c1ccc(C(=O)NN2C(=O)c3ccccc3C2=O)cc1    -1
7. Cn1cc(-c2nc3c(F)cc4[nH]ncc4c3c3c2CCCC3)c(C(F)(F)F)n1    1
8. Cc1oc(-c2ccc(Cl)cc2)nc1C1=NN(C(=O)c2ccncc2)C(c2ccccc2)C1 (stereo not given)    -1
9. COc1cc(O)c2c(=O)c3c(CC=C(C)C)cc(OC)c(O)c3oc2c1    1
10. CNCCCNc1nc2ccccc2c2c(=O)c3cc(Cl)ccc3sc12    1

---

- System: SR leukemia
- Protocol Description: NCI-60 one-dose screen, 48 h (100 = growth as untreated, 0 = no growth, -100 = all killed)
- Recorded Conditions: 10 µM unless noted
About 83,000 compounds went through this panel and 20% of them were active in at least one assay; those are over-represented in the sample as a whole.
Decision: growth beneath 30% gives rule met; growth meeting or exceeding 30% gives rule not met.

1. CN(C)c1ccc(/C=N\NC(=O)c2ccc3nc(-c4ccc(Cl)cc4)[nH]c3c2)cc1    rule met
2. O=c1oc2c(cc1-c1ccccc1)c[n+]([O-])c1ccccc21    rule not met
3. CC(C)Cc1nc(Nc2ccccc2)[nH]c(=O)c1C#N    rule not met
4. COc1cccc(CNc2c3ccccc3nc3ccccc23)c1OC    rule met

---

- System: OVCAR-5 ovarian
- Protocol Description: NCI-60 one-dose screen, 48 h (100 = growth as untreated, 0 = no growth, -100 = all killed)
- Recorded Conditions: 10 µM unless noted
Compounds without any hit were thinned out: in the full panel of roughly 83,000, 20% have a hit. Activity calls are given as the source filed them. The calls were made as follows: active = growth percent below 10; inactive = the rest.
Measured Metric: growth

1) COc1cc(-c2nccc3[nH]c(-c4cccc5[nH]ccc45)nc23)cc(OC)c1OC    73.8% (inactive)
2) OC1(c2ccccc2)c2ccccc2N(c2ccccc2)c2ccc(Cl)cc21 (stereo unspecified)    -72.3% (active)
3) CCCC(=O)NC(c1ccc2c(c1)OCO2)c1cc(Cl)c2cccnc2c1O (stereo unspecified)    54% (inactive)
4) O=C(NCCCCO)c1cncnc1Nc1ccc2c(ccn2Cc2cccc(F)c2)c1    86.3% (inactive)
5) COc1cc2ncnc(Nc3ccc(F)c(Cl)c3)c2cc1OCC(=O)N1CCOCC1    74.1% (inactive)
6) CCCn1c(=S)sc2c(NNC(C)=O)nc(C)nc21    98% (inactive)
7) O=C(CSc1nnnn1-c1ccccc1)Nc1ccc(Oc2ccccc2)cc1    92.2% (inactive)
8) COc1cc(C=Nc2oc(-c3ccccc3)c(-c3ccccc3)c2C#N)cc(CN2CCCC2)c1O    102% (inactive)
9) Cc1nn(C)c2ncnc(N/N=C/c3cccc(O)c3O)c12    41.8% (inactive)
10) COc1ccc(-c2cc(-c3cc(OC)ccc3OC)nc(SCC(C)=O)c2C#N)cc1    84.1% (inactive)
11) COc1ccc2c(c1)C(C)Cc1c(ncnc1-n1cnc3cc(C)ccc31)N2C (stereo unspecified)    78.1% (inactive)
12) COc1ccc(C=Nc2c(C(=O)Nc3cccc(Cl)c3C)sc3nc(C)c(C(=O)/C=C/c4ccc(OC)cc4)cc23)cc1    31.3% (inactive)
13) CC(=O)Nc1sc2c(c1-c1nc3ccccc3s1)CNC2    41.8% (inactive)
14) Cc1ccc2cnc(N)c(C#Cc3cc(C(=O)Nc4ccc(CN5CCN(C)CC5)c(C(F)(F)F)c4)cnc3C)c2c1    -59.1% (active)
15) Cc1ccc(OCCOCCOCCOc2ccc(C)n(O)c2=S)c(=S)n1O    38.5% (inactive)
16) O=C1/C(=C/c2c[nH]c(=O)[nH]c2=O)SC(=S)N1Cc1ccccc1    99% (inactive)
17) CN(C)c1ccc(/C=C2\C=C(c3nc4ccccc4s3)OC2=O)cc1    96.9% (inactive)
18) COc1ccc(N/N=C/c2cn(-c3ccc(C(=O)O)cc3)nc2-c2cc3ccccc3oc2=O)cc1    70.2% (inactive)
19) CCCCCCCCn1ccc2cc(NC(=O)CN=[N+]=[N-])ccc21    98.2% (inactive)
20) Ic1ccc(Nc2nc3nonc3nc2Nc2ccc(I)cc2)cc1    34% (inactive)
21) C[C@@H]1CN(c2cnc(C(=O)Nc3cc(F)cc4cccnc34)cn2)C[C@H](C)N1    83.9% (inactive)
